Experiment: log P determination by HPLC (reversed-phase C18, EEC Directive 79/831 Annex V.A8)
Format: physicochemical
Conditions: reversed-phase C18 HPLC column, pH 2.3, pH 2.3, 0.1% aqueous phosphoric acid/acetonitrile gradient, 43° C
Overview of reported chromatographic logP across a group of molecules:
Give the value as a plain number.

Illustrative cases are given below, each with its answer.
O=S(=O)(Nc1ccc(Cl)nn1)C(F)(F)F : 1.56
Fc1cccc(F)c1C1=NC(c2ccc(-c3ccc(N4CCOCC4)nn3)cc2)CC1 (stereo not drawn) : 1.19
CC1CN(c2ncc(-c3ccc(C4CCC(c5c(F)cccc5F)=N4)cc3)cn2)CC(C)O1 (stereo not drawn) : 3
CN1CCN(c2ccc(-c3ccc(C4CCC(c5c(F)cccc5F)=N4)cc3)cn2)CC1 (stereo not drawn) : 1.04
CCCCCNc1ncc(-c2ccc(C3CCC(c4c(F)cccc4F)=N3)cc2)cn1 (stereo not drawn) : 2.9
CCCNc1ccc(-c2ccc(C3CCC(c4c(F)cccc4F)=N3)cc2)nn1 (stereo not drawn) : 1.26
CCN(CC)c1ccc(Cl)nn1 : 0.51
Fc1cccc(F)c1C1=NC(c2ccc(-c3ccc(N4CCN(Cc5ccccc5)CC4)nc3)cc2)CC1 (stereo not drawn) : 1.5

Moving on to another molecule below.
Record summary for CC(C)(C)C(=O)N1CCN(c2ncc(-c3ccc(C4CCC(c5c(F)cccc5F)=N4)cc3)cn2)CC1 (stereo not drawn) : reported chromatographic logP = 2.81

* * *

Experiment: log P determination by HPLC (reversed-phase C18, EEC Directive 79/831 Annex V.A8)
Type: physicochemical
Conditions: reversed-phase C18 HPLC column, pH 2.3, pH 2.3, 0.1% aqueous phosphoric acid/acetonitrile gradient, 43° C
From the text: Mobile phases for determination in the acidic range: 0.1% aqueous phosphoric acid, acetonitrile; linear gradient from 10% acetonitrile to 90% acetonitrile.
quantityKind: chromatographic logP
No unit in the answer, only the number.

CCCCCN1CCN(c2ncc(-c3ccc(C4CCC(c5c(F)cccc5F)=N4)cc3)cn2)CC1 (centres unmarked) : 2.02
Fc1cccc(F)c1C1=NC(c2ccc(-c3ccc(N4CCCC4)nn3)cc2)CC1 (centres unmarked) : 1.28
N#CCCN1CCN(c2ncc(-c3ccc(C4CCC(c5c(F)cccc5F)=N4)cc3)cn2)CC1 (centres unmarked) : 1.69
CN(C)c1ncc(-c2ccc(C3CCC(c4c(F)cccc4F)=N3)cc2)cn1 (centres unmarked) : 3.62
CCOc1ncc(-c2ccc(C3CCC(c4c(F)cccc4F)=N3)cc2)cn1 (centres unmarked) : 2.21

In plain terms, FC(F)(F)COc1ccc(Br)cn1 has a documented chromatographic logP of 3.48

Form field chromatographic logP, entry CCN(C)c1ccc(-c2ccc(C3CCC(c4c(F)cccc4F)=N3)cc2)nn1 (centres unmarked) : 1.23

Please fill in: chromatographic logP reported for O=S(=O)(N(Cc1ccc(-c2ccc(C3CCC(c4c(F)cccc4F)=N3)cc2)nc1)C1CC1)C(F)(F)F (centres unmarked) = 3.39

Per the records, this compound ( Fc1cccc(F)c1C1=NC(c2ccc(-c3cnc(N4CCN(CC5CCCCC5)CC4)nc3)cc2)CC1 (centres unmarked) ) has chromatographic logP equal to 2.12

The compound listed as O=C1CCCCCN1c1ccc(-c2ccc(C3CCC(c4c(F)cccc4F)=N3)cc2)cn1 (centres unmarked) has a reported chromatographic logP of 2.25

response.value for CC(C#N)c1ccc(-c2ccc(C3CCC(c4c(F)cccc4F)=N3)cc2)nc1 (centres unmarked) (field: chromatographic logP) = 1.98

* * *

Test: log P determination by HPLC (reversed-phase C18, EEC Directive 79/831 Annex V.A8)
Type: physicochemical
Settings: reversed-phase C18 HPLC column, pH 2.3, pH 2.3, 0.1% aqueous phosphoric acid/acetonitrile gradient, 43° C
Overview of reported chromatographic logP across a group of compounds:
Keep the answer to the number alone.

Take a look at these entries with their results.
CCN1CCN(c2ncc(-c3ccc(C4CCC(c5c(F)cccc5F)=N4)cc3)cn2)CC1 (centres unmarked) : 1.24
Fc1cccc(F)c1C1=NC(c2ccc(-c3ccc(C(F)(F)F)cn3)cc2)CC1 (centres unmarked) : 3.25
Fc1cccc(F)c1C1=NC(c2ccc(-c3ccc(N4CCN(CC5CCCCC5)CC4)nc3)cc2)CC1 (centres unmarked) : 6.7
CCC1CCN(c2ncc(-c3ccc(C4CCC(c5c(F)cccc5F)=N4)cc3)cn2)CC1 (centres unmarked) : 4.58
CCCCN(CC)c1ccc(-c2ccc(C3CCC(c4c(F)cccc4F)=N3)cc2)nn1 (centres unmarked) : 1.82

Now look at this one.
For CN(Cc1ccco1)c1ncc(-c2ccc(C3CCC(c4c(F)cccc4F)=N3)cc2)cn1 (centres unmarked) the compound record lists chromatographic logP as 3.1

* * *

Listed here are compounds together with their documented chromatographic logP.
Assay: log P determination by HPLC (reversed-phase C18, EEC Directive 79/831 Annex V.A8)
Assay type: physicochemical
Settings: reversed-phase C18 HPLC column, pH 2.3, pH 2.3, 0.1% aqueous phosphoric acid/acetonitrile gradient, 43° C
Simply state the number, no unit and no words.

Below, each entry is followed by its recorded chromatographic logP result.
CCCCCCNc1ncc(-c2ccc(C3CCC(c4c(F)cccc4F)=N3)cc2)cn1 (stereo not shown) : 3.1
N#Cc1cccnc1N1CCN(c2ncc(-c3ccc(C4CCC(c5c(F)cccc5F)=N4)cc3)cn2)CC1 (stereo not shown) : 3.28
O=C(OCc1ccccc1)N1CCN(c2ccc(Cl)nn2)CC1 : 2.36
Fc1cccc(F)c1C1=NC(c2ccc(-c3cnc(NC4CCCCC4)nc3)cc2)CC1 (stereo not shown) : 3
Fc1cccc(F)c1C1=NC(c2ccc(-c3ccc(OCC(F)(F)F)nc3)cc2)CC1 (stereo not shown) : 3.66
Fc1cccc(F)c1C1=NC(c2ccc(-c3ccc(Cl)nc3)cc2)CC1 (stereo not shown) : 2.58

The recorded chromatographic logP for entry Fc1cccc(F)c1C1=NC(c2ccc(-c3ccc(N4CCN(c5cccc(Cl)c5)CC4)nc3)cc2)CC1 (stereo not shown) equals 3.17

Entry CCCN(CCC)c1ccc(-c2ccc(C3CCC(c4c(F)cccc4F)=N3)cc2)nn1 (stereo not shown) — recorded chromatographic logP = 1.86

Lab note: CC1(C)CCN(c2ncc(-c3ccc(C4CCC(c5c(F)cccc5F)=N4)cc3)cn2)CC1 (stereo not shown) gave chromatographic logP of 4.38

So, N#Cc1ccc(N2CCN(c3ccc(-c4ccc(C5CCC(c6c(F)cccc6F)=N5)cc4)cn3)CC2)cc1 (stereo not shown) ? Its chromatographic logP was 2.29

Just so you know, measured chromatographic logP for O=S(=O)(N(c1ncc(-c2ccc(C3CCC(c4c(F)cccc4F)=N3)cc2)cn1)C1CC1)C(F)(F)F (stereo not shown) came out at 3.63

// CN(Cc1ccc(Cl)nc1)c1ncc(-c2ccc(C3CCC(c4c(F)cccc4F)=N3)cc2)cn1 (stereo not shown) : chromatographic logP value = 2.89

Lab note: measured chromatographic logP of Fc1cccc(F)c1C1=NC(c2ccc(-c3ncc(-c4ccc(Cl)cc4)cn3)cc2)CC1 (stereo not shown) was 4.12

// sample CCCC(C)N1CCN(c2ncc(-c3ccc(C4CCC(c5c(F)cccc5F)=N4)cc3)cn2)CC1 (stereo not shown) , its chromatographic logP was 1.65

So for CCCCCCN(C(C)=O)c1ccc(-c2ccc(C3CCC(c4c(F)cccc4F)=N3)cc2)nn1 (stereo not shown) , the logged chromatographic logP turned out to be 3.11

Reported chromatographic logP for Fc1cccc(F)c1C1=NC(c2ccc(-c3cnc(N4CCCCCC4)nc3)cc2)CC1 (stereo not shown) was 3.41

* * *

Test: log P determination by HPLC (reversed-phase C18, EEC Directive 79/831 Annex V.A8)
Type: physicochemical
Settings: pH 2.3, 0.1% aqueous phosphoric acid/acetonitrile gradient, 43° C
quantityKind: chromatographic logP
I'd appreciate a reply containing only the number, no unit.

Lab note: measured chromatographic logP of CC(C)(C)OC(=O)N1CCN(c2ccc(-c3ccc(C4CCC(c5c(F)cccc5F)=N4)cc3)nn2)CC1 (stereo not shown) was 2.07

* * *

Experiment: log P determination by HPLC (reversed-phase C18, EEC Directive 79/831 Annex V.A8)
Assay type: physicochemical
Conditions: reversed-phase C18 HPLC column, pH 2.3, pH 2.3, 0.1% aqueous phosphoric acid/acetonitrile gradient, 43° C
quantityKind: chromatographic logP
Please reply with the number alone, leaving off any unit.

Below are worked cases with known answers.
CN(C(=O)C(C)(C)C)c1ccc(Cl)nn1 : 1.69
O=C1CCCN1c1ccc(Cl)nn1 : 1.09
CCc1cnc(-c2ccc(C3CCC(c4c(F)cccc4F)=N3)cc2)nc1 (stereo not drawn) : 2.46
Fc1cccc(F)c1C1=NC(c2ccc(-c3ncc(Cl)cn3)cc2)CC1 (stereo not drawn) : 2.87
CN(C)CCN1CCN(c2ncc(-c3ccc(C4CCC(c5c(F)cccc5F)=N4)cc3)cn2)CC1 (stereo not drawn) : 3

COCCN1CCN(c2ncc(-c3ccc(C4CCC(c5c(F)cccc5F)=N4)cc3)cn2)CC1 (stereo not drawn) has a reported chromatographic logP of 1.49

COc1ccc(CN2CCN(c3ncc(-c4ccc(C5CCC(c6c(F)cccc6F)=N5)cc4)cn3)CC2)cc1 (stereo not drawn) yielded chromatographic logP of 2.22

The molecule Fc1cccc(F)c1C1=NC(c2ccc(-c3cnc(N4CCN(c5ncccn5)CC4)nc3)cc2)CC1 (stereo not drawn) showed chromatographic logP equal to 2.7

The molecule identified as COC(CN(C)c1ncc(-c2ccc(C3CCC(c4c(F)cccc4F)=N3)cc2)cn1)OC (stereo not drawn) registered its chromatographic logP at 2.32

molecule CC(C)ON=C1CCN(c2ncc(-c3ccc(C4CCC(c5c(F)cccc5F)=N4)cc3)cn2)CC1 (stereo not drawn) , chromatographic logP observed: 3.83

For reference, reported chromatographic logP for COC(=O)c1ccc(-c2ccc(C3CCC(c4c(F)cccc4F)=N3)cc2)nc1 (stereo not drawn) stands at 2.39

response.value for O/N=C/c1ccc(-c2ccc(C3CCC(c4c(F)cccc4F)=N3)cc2)nc1 (stereo not drawn) (field: chromatographic logP) = 1.58

Lab note: measured chromatographic logP of CC(C)Sc1ccc(-c2ccc(C3CCC(c4c(F)cccc4F)=N3)cc2)nn1 (stereo not drawn) was 2.94

Consider Fc1cccc(F)c1C1=NC(c2ccc(-c3cnc(-n4cccn4)nc3)cc2)CC1 (stereo not drawn) . Its measured chromatographic logP is 1.98

Briefly, chromatographic logP measured for CC(=O)N(c1ccc(-c2ccc(C3CCC(c4c(F)cccc4F)=N3)cc2)nn1)C(C)C (stereo not drawn) : 2.03

These entries and their values trace back to patent US7179806B2.
